Test system: EKVX NSCLC
procedure summary: NCI-60 one-dose screen, 48 h (100 = growth as untreated, 0 = no growth, -100 = all killed)
measurement parameters: 10 µM unless noted
Compounds without any hit were thinned out: in the full panel of roughly 83,000, 20% have a hit.
Kindly apply the following: criterion met if growth is less than 80%, criterion not met in every other case.

[[record]]
molecule = "Cc1ccc(-c2nc3nc(-c4ccc(Br)cc4)nc(N4CCCNCC4)c3o2)cc1"
class_assignment = "criterion not met"

[[record]]
molecule = "Cc1nc2sc(C(=O)Nc3cccc4ncccc34)c(N)c2cc1C(C)O (centres undefined)"
class_assignment = "criterion not met"

[[record]]
molecule = "Nn1c(-c2ccc(Cl)cc2)nc2c(-c3ccc(Cl)cc3)nc3ccc(Cl)cc3c2c1=O"
class_assignment = "criterion met"

[[record]]
molecule = "COC(=O)c1[nH]nc(OC)c1C1(C(C#N)c2nc3ccccc3s2)CCCc2ccccc21 (centres undefined)"
class_assignment = "criterion not met"

[[record]]
molecule = "Cc1ccc(-c2nc3nc(-c4ccccc4)nc(N4CCCNCC4)c3o2)cc1"
class_assignment = "criterion met"

[[record]]
molecule = "COc1cc(-c2nc(SCCC(C)C)nc(Nc3ccc(F)cc3)c2C#N)cc(OC)c1OC"
class_assignment = "criterion not met"

[[record]]
molecule = "CCN(CC)CCOc1ccccc1C"
class_assignment = "criterion not met"

[[record]]
molecule = "Clc1ccc2c(NCCN3CCN(c4ccnc(N5CCCC5)n4)CC3)ccnc2c1"
class_assignment = "criterion met"

[[record]]
molecule = "CN(C)C(=O)c1cc2cnc(Nc3ccc(-c4csc5c(=S)cc(N6CCOCC6)oc45)cc3)nc2n1C1CCCC1"
class_assignment = "criterion met"

[[record]]
molecule = "CCOC(=O)n1cc(-c2nonc2-c2cn(C)c3ccc(OC)cc23)c2cc(F)ccc21"
class_assignment = "criterion met"

[[record]]
molecule = "COc1ccc(N2CCN(S(=O)(=O)c3oc(-c4ccccc4)nc3C#N)CC2)cc1"
class_assignment = "criterion not met"

[[record]]
molecule = "CCOC(=O)C(=Cc1ccc(C#N)cc1)C(=O)OCC"
class_assignment = "criterion met"

[[record]]
molecule = "CS(=O)(=O)Nc1cc(-c2ccc3ncnc(Nc4ccc(F)c(Cl)c4)c3c2)cnc1Cl"
class_assignment = "criterion met"

[[record]]
molecule = "N#C/C(=N\\Nc1ccc(Cl)cc1)C(=O)Nc1cc(-c2ccccc2)nn1-c1ccccc1"
class_assignment = "criterion met"

[[record]]
molecule = "C=C(CN1CC=CCC1)[C@@H]1CC[C@]2(COC(C)=O)CC[C@]3(C)[C@H](CC[C@@H]4[C@@]5(C)CC[C@H](O)C(C)(C)[C@@H]5CC[C@]43C)[C@@H]12"
class_assignment = "criterion not met"

[[record]]
molecule = "Nc1ccc(-c2nc3ccc4[nH]ncc4c3c3c2CCCC3)cc1F"
class_assignment = "criterion met"

[[record]]
molecule = "CN(Cc1ccccc1)c1nc(Cl)c(C2CC(c3ccc4c(c3)OCO4)=NN2c2cc(Cl)cc(Cl)c2)s1 (centres undefined)"
class_assignment = "criterion not met"

[[record]]
molecule = "Cc1ccc(C(=O)c2ccc(CC(=O)N=Nc3c(O)[nH]c4ccc(OC(F)(F)F)cc34)n2C)cc1"
class_assignment = "criterion met"

